Assignment: determine reported RP-LC retention time for the given molecules.
experiment: gradient 5% acetonitrile 3 min, to 50% in 2 min, to 85% in 15 min, held 3 min, 100 µL/min; settings: column: Zorbax Extend-C18 2.1 x 50 mm; eluents: water / acetonitrile, 0.1% formic acid
# number only, unit s dropped from output

Input line: Reported RP-LC retention time, molecule "COc1cccc(CNC(=O)Nc2c(-c3ccccc3)nc3ccccn23)c1" : ____
Output line: 653

Input line: I have this molecule here, "Cc1cc(C)n(-c2ccnc(N3CCC(C(=O)NC4CCCC4)CC3)n2)n1" , and I need its recorded RP-LC retention time.
Output line: 786

Input line: Entry O=C(CSc1nnc(NC(=O)Cc2cccc3ccccc23)s1)NCC1CCCO1 (centres undefined) : reported RP-LC retention time = ?
Output line: 715

Input line: What does the record list as RP-LC retention time for "Cc1ccc(S(=O)(=O)N2CCC(CCC(=O)O)CC2)cc1" ?
Output line: 799

Input line: // lookup RP-LC retention time for O=C(NCc1cccs1)C1CCCN(c2nc3ccsc3c(=O)n2-c2ccccc2)C1 (centres undefined)
Output line: 816

Input line: I am curious: what RP-LC retention time value has been reported for "Cc1cc(C(=O)NC(C)C)nn1C" ?
Output line: 628

Input line: Param item = "COc1ccc(OC)c(S(=O)(=O)N2CCC(N3C[C@H](OC)[C@@H]3c3cccnc3)CC2)c1" ; retrieve measured RP-LC retention time.
Output line: 619

Input line: Data request, read-out RP-LC retention time, for "COc1ccc(-c2cc3c4nnc(CCC(=O)NCc5ccccc5C(F)(F)F)n4ccn3n2)cc1"
Output line: 822

Input line: Field request: RP-LC retention time | item: O=C(C1CC(=O)N(c2cccc(-c3noc(C4CCC4)n3)c2)C1)N1CCN(c2ccccc2)CC1 (centres undefined)
Output line: 1010

Input line: GET /values?readout=RP-LC retention time&item= "COCCc1noc([C@@H]2CC(F)(F)CN2C(=O)c2ocnc2C)n1"
Output line: 689

Input line: Can you look up the measured RP-LC retention time of "CCCN1C(=O)COc2ccc(-c3csc(NC(=O)CC)n3)cc21" for me?
Output line: 861

Input line: Would you kindly share the measured RP-LC retention time for "O=C(CCc1conc1-c1ccc(F)cc1)NC1CCCCC1" ?
Output line: 927

Input line: Give the measured RP-LC retention time of "CCCn1cc(CCNC(=O)c2cc3ccccc3[nH]2)c2cccnc21" .
Output line: 794

Input line: Any idea what its RP-LC retention time is? The molecule is "COC(=O)c1cc2c(cn1)[nH]c1ccccc12"
Output line: 704

----------
experiment: gradient 5% acetonitrile 3 min, to 50% in 2 min, to 85% in 15 min, held 3 min, 100 µL/min; details: column: Zorbax Extend-C18 2.1 x 50 mm; eluents: water / acetonitrile, 0.1% formic acid
Consider the following compounds; for each one, report its RP-LC retention time.
Dear colleague, please return just the value in s, with no unit written.

Input line: RP-LC retention time lookup needed for CSc1ccc(-c2noc(CN3C(=O)C(C)Oc4ccccc43)n2)cc1 (configuration not stated) , thanks.
Output line: 1140

Input line: For the compound shown here, "COCCc1noc(-c2cnc3nc(C)ccc3c2Nc2ccccc2)n1" , give the reported RP-LC retention time.
Output line: 677

Input line: Can you share its RP-LC retention time? I mean this compound: "CC(C)c1ccc(N2C=C(C(=O)N3CCCCC3)S(=O)(=O)c3ccccc32)cc1"
Output line: 1040

Input line: What value of RP-LC retention time has been reported for the following compound? "COC[C@@H]1CN(S(=O)(=O)Cc2ccccc2)C[C@H]1c1ccccn1"
Output line: 693

Input line: Entry under review: "O=C(COc1ccccc1F)NCCS(=O)(=O)N1CCN(c2ncccn2)CC1" . Reported RP-LC retention time?
Output line: 716

Input line: May I ask what RP-LC retention time has been recorded for CCc1nc(-c2ccc(OC3CCN(C(=O)c4sc(C)nc4C)C3)cc2)no1 (configuration not stated) ?
Output line: 696

Input line: I'd like to know its RP-LC retention time. The compound in question is "COCc1cn(C2CN(C(=O)c3ccc(C)s3)C2)nn1"
Output line: 649

Input line: # get_value(readout='RP-LC retention time', item= "COc1cccc(-c2noc(Cn3ccnc3C)n2)c1OC" )
Output line: 601

Input line: RP-LC retention time for "CN1C(=O)c2ccccc2Oc2ccc(C(=O)NCc3ccc(Cl)cc3)cc21" ?
Output line: 957

Input line: Need RP-LC retention time of CC(=O)Nc1ccc(CCc2nc3ccc(C(=O)NC(C)Cc4ccco4)cc3[nH]2)cc1 (configuration not stated) , thanks.
Output line: 626

Input line: Name the recorded RP-LC retention time for "COc1ccc(S(=O)(=O)N2C[C@H]3CN(C(=O)Nc4cccc(OC)c4)C[C@@H](C2)O3)cc1" .
Output line: 881

Input line: Suppose we examine the compound COC(=O)Nc1nc2ccc(S(=O)c3ccccc3)cc2[nH]1 (configuration not stated) ; what RP-LC retention time value has been reported?
Output line: 658

Input line: I have this compound here, COc1cc(OC)cc(N2C(=O)C3N=NN(Cc4nc(-c5ccc(OC(C)C)cc5)no4)C3C2=O)c1 (configuration not stated) , and I need its recorded RP-LC retention time.
Output line: 1090

Input line: Which RP-LC retention time value belongs to "CS(=O)(=O)Nc1ccc(C2(C(=O)NCc3ccc(F)cc3Cl)CCCCC2)cc1" ?
Output line: 979

Input line: # get_value(readout='RP-LC retention time', item= "Cn1nc(C(=O)N2CCCCC2)c2c1CCN(C(=O)CCC(=O)NCCCN1CCCCC1)C2" )
Output line: 579

Input line: Can you share its RP-LC retention time? I mean this compound: O=C(Nc1ccc(Cl)cc1)C1CCCN(S(=O)(=O)Cc2ccccc2)C1 (configuration not stated)
Output line: 976

Input line: Which measured RP-LC retention time value corresponds to "Cc1nn(-c2ccc(N3CCOCC3)nn2)c(C)c1CCC(=O)Nc1ccccc1F" ?
Output line: 709

Input line: What does the record list as RP-LC retention time for "Nc1nc(-c2ccc(Cl)cc2)nn1C(=O)c1ccc(Cl)cc1" ?
Output line: 1170

Input line: // lookup RP-LC retention time for "CCN1C(=O)c2cccnc2Sc2cc(CNC(=O)c3sc(C)nc3C)ccc21"
Output line: 681

Input line: What value of measured RP-LC retention time is listed for "Cc1[nH]nc(-c2cc(S(=O)(=O)NCCc3ccccc3)c(C)s2)c1C" ?
Output line: 886

Input line: # get_value(readout='RP-LC retention time', item= "O=C(NC1CC1)C1CCN(c2nnc(-c3ccccc3)o2)CC1" )
Output line: 657

Input line: What does the data say about its RP-LC retention time? Entry: "Cc1ccccc1CNc1nnc(-c2nc(C3CC3)no2)c2ccccc12"
Output line: 936

Input line: Consider the compound shown here: "C[C@H]1C2Cc3ccc(O)cc3[C@@]1(C)CCN2CC1CC1" What is its recorded RP-LC retention time?
Output line: 669

Input line: Reported RP-LC retention time, compound "O=C(Cn1cc(-c2ccccc2)c2ncn(C3CC3)c(=O)c21)NCc1ccco1" : ____
Output line: 799

Input line: Could you tell me which RP-LC retention time is on file for "Cc1ccc(C)c(N2CCN(C(=O)c3cc(C)n4nccc4n3)CC2)c1" ?
Output line: 986

Input line: Look up RP-LC retention time for this compound: "N#CCSc1nnc2ccc3ccccc3n12"
Output line: 639

Input line: Could you tell me which RP-LC retention time is on file for "CCCN1C(=O)CCc2cc(NS(=O)(=O)c3cccs3)ccc21" ?
Output line: 797

----------
test: gradient 5% acetonitrile 3 min, to 50% in 2 min, to 85% in 15 min, held 3 min, 100 µL/min; settings: column: Zorbax Extend-C18 2.1 x 50 mm; eluents: water / acetonitrile, 0.1% formic acid
measured.attribute: RP-LC retention time (s)
Dear colleague, please return just the value in s, with no unit written.

Input line: Quick one: RP-LC retention time for "CN1CCN(C(=O)C(=O)Nc2c3c(nn2-c2cccc(Cl)c2)CSC3)CC1" ?
Output line: 571

Input line: # lookup: RP-LC retention time of CCNC(=O)C1CCCN(c2nc3ncn(CC(=O)Nc4ccc(C)c(C)c4)c(=O)c3s2)C1 (configuration not stated)
Output line: 711

Input line: I am curious: what RP-LC retention time value has been reported for CCCn1ccc2sc(C)c(C(=O)NC(C)c3ccc(F)cc3)c2c1=O (configuration not stated) ?
Output line: 994

Input line: Consider the molecule CC(C)(C)c1cc(C(C)(C)C)c2c(c1)C(O)(C(F)(F)F)C(=O)O2 (configuration not stated) and give its measured RP-LC retention time.
Output line: 1250

Input line: So what does the record say about RP-LC retention time for O=c1c2ccccc2n(Cc2nc(-c3ccc(C(F)(F)F)cc3)no2)c(=O)n1CC1CCCO1 (configuration not stated) ?
Output line: 1100

Input line: // lookup RP-LC retention time for "CC(C)n1c(=O)c(NCCCc2ccccc2)nc2ccncc21"
Output line: 707

Input line: Which RP-LC retention time value is on record for COc1cccc(NC(=O)C2CC(=O)N(c3ccc4c(c3)CCN4C(=O)C3CCC3)C2)c1 (configuration not stated) ?
Output line: 817

Input line: # input molecule: "Cc1cc2nn(CC(=O)N3CCCC3)c(=O)n2c(Nc2ccc(F)c(C)c2)n1" ; wanted: its RP-LC retention time
Output line: 643

Input line: Can you look up the measured RP-LC retention time of "CCOC(=O)c1oc2ccc(S(=O)(=O)N3CC4CN(C)CC(C3)O4)cc2c1C" for me?
Output line: 649

Input line: Report RP-LC retention time for CCCCOc1ccc(C(=O)N(Cc2ccc(Br)o2)C2CCS(=O)(=O)C2)cc1 (configuration not stated) please.
Output line: 1090

Input line: Name the reported RP-LC retention time value associated with the molecule "C=CCNC(=O)c1nnn(Cc2ccc(Cl)cc2)c1-n1cccc1"
Output line: 954

Input line: Recorded RP-LC retention time for "CCC1=C(c2ccc(C)cc2)S(=O)(=O)N=C1N1CCC(C(=O)NCCCOC(C)C)CC1" , please?
Output line: 844

Input line: # get_value(readout='RP-LC retention time', item= O=C(C1CCC1)N1CC(c2nc(-c3ccc(F)cc3)no2)C2(CCOCC2)C1 (configuration not stated) )
Output line: 891

Input line: Which RP-LC retention time value is on record for "Cc1ccc(-n2c(C)c(C)c3c(=O)n(CC(=O)NC4CCCC4)cnc32)cc1" ?
Output line: 834

Input line: // lookup RP-LC retention time for "CCn1cc(C(=O)Nc2ccc(Cl)cc2)c(S(=O)(=O)N2CCSCC2)n1"
Output line: 892

Input line: Entry under review: "Cn1nnc2ccc(-c3noc(-c4ccc(Cl)cc4)n3)cc21" . Reported RP-LC retention time?
Output line: 1090

Input line: What does the data say about its RP-LC retention time? Entry: "CCCC(=O)N1CCN(c2ccc(=O)n(-c3ccc(Cl)cc3)n2)CC1"
Output line: 778
